Reference source: patent EP1227090A1

# Tested system: human somatostatin receptor protein subtype 2 (SSTR2) (Homo sapiens, UniProt P30874)
# Construct: expressed in transfected cells; host or cells: CHO (dhfr-) cells, strain SSTR2-HS5-9, plasmid pAC01 (pAKKO-111 vector); membrane fraction
# Sequence (P30874 whole entry): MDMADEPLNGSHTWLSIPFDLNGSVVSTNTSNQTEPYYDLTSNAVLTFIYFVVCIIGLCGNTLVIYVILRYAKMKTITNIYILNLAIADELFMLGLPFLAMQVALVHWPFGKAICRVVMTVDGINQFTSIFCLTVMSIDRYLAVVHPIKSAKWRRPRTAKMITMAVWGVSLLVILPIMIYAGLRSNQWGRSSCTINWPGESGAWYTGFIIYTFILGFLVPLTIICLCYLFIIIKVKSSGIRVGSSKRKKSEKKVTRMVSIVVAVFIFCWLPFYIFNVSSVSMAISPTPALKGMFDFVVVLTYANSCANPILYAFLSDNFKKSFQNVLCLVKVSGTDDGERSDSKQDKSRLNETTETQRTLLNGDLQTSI
# Test name: Measurement of the binding inhibition rate of 125I-Somatostatin (SSTR2)
# Condition summary: 125I-somatostatin-14 binding inhibition, CHO cell membrane fraction, 25°C for 60 minutes, Hill plots
IC50 reference
Enter your answer as a number in nM; do not include the unit.

Request: // IC50 lookup, key: CN(C)CC1Cc2cc(Cl)ccc2N(C(=O)[C@@H](Cc2c[nH]c3ccccc23)NC(=O)C2CCN(C(=O)c3cc4ccccc4[nH]3)CC2)C1 (some centres unmarked) [Example 14]
Response: 0.6

Request: // IC50 lookup, key: CN(C)C[C@H]1Cc2cc(Cl)ccc2N(C(=O)[C@@H](Cc2c[nH]c3ccccc23)NC(=O)N2CCC(Oc3ccccc3)CC2)C1 [Example 145-2]
Response: 1

Request: // IC50 lookup, key: CN(C)C[C@H]1Cc2cc(Cl)ccc2N(C(=O)[C@@H](Cc2c[nH]c3ccccc23)NC(=O)C2CCN(C(=O)c3cc4ccccc4n3C)CC2)C1 [Example 51]
Response: 0.3

Request: // IC50 lookup, key: CN(C)C[C@H]1Cc2cc(Cl)ccc2N(C(=O)[C@@H](Cc2c[nH]c3ccccc23)NC(=O)CCC2CCN(C(=O)c3ccccc3)CC2)C1 [Example 31]
Response: 2

Request: // IC50 lookup, key: CN(C)C[C@H]1Cc2cc(Cl)ccc2N(C(=O)[C@@H](Cc2c[nH]c3ccccc23)NC(=O)N2CCC(C(=O)c3ccc(Cl)cc3)CC2)C1 [Example 130]
Response: 2

* * *

# Tested system: human somatostatin receptor protein subtype 3 (SSTR3) (Homo sapiens, UniProt P32745)
# Construct: expressed in transfected cells; host or cells: CHO (dhfr-) cells, strain SSTR3-15-19, plasmid pA1-11-SSTR3 (pAKKO-111 vector); membrane fraction
# Sequence (P32745 whole entry): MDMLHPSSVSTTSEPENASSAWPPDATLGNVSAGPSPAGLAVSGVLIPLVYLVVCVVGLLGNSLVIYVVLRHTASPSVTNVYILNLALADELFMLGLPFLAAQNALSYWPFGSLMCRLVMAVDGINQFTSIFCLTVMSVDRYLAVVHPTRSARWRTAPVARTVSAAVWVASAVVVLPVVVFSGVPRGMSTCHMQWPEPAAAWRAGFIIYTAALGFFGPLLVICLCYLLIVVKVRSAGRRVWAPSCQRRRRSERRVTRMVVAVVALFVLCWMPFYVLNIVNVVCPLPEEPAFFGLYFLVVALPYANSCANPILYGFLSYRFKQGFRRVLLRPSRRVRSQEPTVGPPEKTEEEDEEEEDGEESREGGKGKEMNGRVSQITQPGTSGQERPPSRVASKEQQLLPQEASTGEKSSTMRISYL
# Test name: Measurement of the binding inhibition rate of 125I-Somatostatin (SSTR3)
# Condition summary: 125I-somatostatin-14 binding inhibition, CHO cell membrane fraction, 25°C for 60 minutes, Hill plots
Binarize IC50 at 40 nM; below is satisfied, at or above is not satisfied.

These recorded examples may help you get a feel for the data.
1) CN(C)CC1Cc2cc(Cl)ccc2N(C(=O)[C@@H](Cc2c[nH]c3ccccc23)NC(=O)C2CCN(C(=O)c3cc4ccccc4[nH]3)CC2)C1 (some centres unmarked) | not satisfied
2) CN(C)C[C@H]1Cc2cc(Cl)ccc2N(C(=O)[C@@H](Cc2c[nH]c3ccccc23)NC(=O)N2CCC(Oc3ccccc3)CC2)C1 | satisfied
3) CN(C)C[C@H]1Cc2cc(Cl)ccc2N(C(=O)[C@@H](Cc2c[nH]c3ccccc23)NC(=O)C2CCN(C(=O)c3cc4ccccc4n3C)CC2)C1 | not satisfied

Read the next record carefully.
Request: I wonder whether CN(C)C[C@H]1Cc2cc(Cl)ccc2N(C(=O)[C@@H](Cc2c[nH]c3ccccc23)NC(=O)CCC2CCN(C(=O)c3ccccc3)CC2)C1 has IC50 below 40 nM. Can you tell?
Response: not satisfied

* * *

# Tested system: human somatostatin receptor protein subtype 5 (SSTR5) (Homo sapiens, UniProt P35346)
# Construct: expressed in transfected cells; host or cells: CHO (dhfr-) cells, strain SSTR5-32-4, plasmid pA1-11-SSTR5 (pAKKO-111 vector); membrane fraction
# Sequence (P35346 whole entry): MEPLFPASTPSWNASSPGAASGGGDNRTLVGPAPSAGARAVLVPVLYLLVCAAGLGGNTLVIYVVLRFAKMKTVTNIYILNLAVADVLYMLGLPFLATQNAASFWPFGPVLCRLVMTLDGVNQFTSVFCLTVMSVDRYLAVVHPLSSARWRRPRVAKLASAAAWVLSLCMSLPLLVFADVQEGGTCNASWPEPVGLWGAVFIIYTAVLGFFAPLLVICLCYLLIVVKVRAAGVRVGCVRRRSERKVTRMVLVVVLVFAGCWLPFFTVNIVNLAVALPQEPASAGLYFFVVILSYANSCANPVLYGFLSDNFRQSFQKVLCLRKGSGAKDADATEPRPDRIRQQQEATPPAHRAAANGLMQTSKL
# Test name: Measurement of the binding inhibition rate of 125I-Somatostatin (SSTR5)
# Condition summary: 125I-somatostatin-14 binding inhibition, CHO cell membrane fraction, 25°C for 60 minutes, Hill plots
Value type: IC50

1) CN(C)C[C@H]1Cc2cc(Cl)ccc2N(C(=O)[C@@H](Cc2c[nH]c3ccccc23)NC(=O)CCC2CCN(C(=O)c3ccccc3)CC2)C1 [Example 31] | 300 nM

Request: // IC50 lookup, key: CN(C)C[C@H]1Cc2cc(Cl)ccc2N(C(=O)[C@@H](Cc2c[nH]c3ccccc23)NC(=O)N2CCC(C(=O)c3ccc(Cl)cc3)CC2)C1 [Example 130]
Response: 400 nM

Request: // IC50 lookup, key: CN(C)CC1Cc2cc(Cl)ccc2N(C(=O)[C@@H](Cc2c[nH]c3ccccc23)NC(=O)C2CCN(C(=O)c3cc4ccccc4[nH]3)CC2)C1 (some centres unmarked) [Example 14]
Response: 300 nM

Request: // IC50 lookup, key: CN(C)C[C@H]1Cc2cc(Cl)ccc2N(C(=O)[C@@H](Cc2c[nH]c3ccccc23)NC(=O)C2CCN(C(=O)c3cc4ccccc4n3C)CC2)C1 [Example 51]
Response: 400 nM

Request: // IC50 lookup, key: CN(C)C[C@H]1Cc2cc(Cl)ccc2N(C(=O)[C@@H](Cc2c[nH]c3ccccc23)NC(=O)N2CCC(Oc3ccccc3)CC2)C1 [Example 145-2]
Response: 200 nM
